study_target: IKZF1 (Homo sapiens (Human), UniProt Q13422+Q96SW2)
Sequence (Q13422 whole entry): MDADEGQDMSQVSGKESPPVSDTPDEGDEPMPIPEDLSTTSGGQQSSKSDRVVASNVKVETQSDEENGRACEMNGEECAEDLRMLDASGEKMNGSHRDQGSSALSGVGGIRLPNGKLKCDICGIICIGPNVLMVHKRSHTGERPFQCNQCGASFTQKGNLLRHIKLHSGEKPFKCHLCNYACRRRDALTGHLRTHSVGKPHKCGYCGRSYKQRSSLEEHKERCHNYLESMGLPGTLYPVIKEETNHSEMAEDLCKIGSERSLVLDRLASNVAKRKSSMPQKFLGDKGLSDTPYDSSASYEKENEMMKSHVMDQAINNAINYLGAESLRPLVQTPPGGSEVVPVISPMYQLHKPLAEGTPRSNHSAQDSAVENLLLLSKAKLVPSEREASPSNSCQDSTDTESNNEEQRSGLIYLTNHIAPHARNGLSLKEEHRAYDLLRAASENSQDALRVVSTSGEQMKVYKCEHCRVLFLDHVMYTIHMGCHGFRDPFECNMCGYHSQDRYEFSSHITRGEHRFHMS
Sequence (Q96SW2 whole entry): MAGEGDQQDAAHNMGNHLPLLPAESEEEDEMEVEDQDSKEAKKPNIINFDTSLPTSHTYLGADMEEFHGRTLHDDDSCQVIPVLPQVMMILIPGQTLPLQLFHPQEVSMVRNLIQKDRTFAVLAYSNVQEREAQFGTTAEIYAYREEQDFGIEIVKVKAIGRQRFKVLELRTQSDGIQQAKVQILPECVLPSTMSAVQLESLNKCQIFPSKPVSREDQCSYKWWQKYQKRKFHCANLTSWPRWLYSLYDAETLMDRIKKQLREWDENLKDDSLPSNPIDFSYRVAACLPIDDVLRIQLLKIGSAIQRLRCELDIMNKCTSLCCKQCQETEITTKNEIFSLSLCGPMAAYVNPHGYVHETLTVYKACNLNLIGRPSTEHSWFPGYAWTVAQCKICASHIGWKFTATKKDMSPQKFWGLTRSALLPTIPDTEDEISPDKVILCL
Sequence (Q16531 whole entry partner): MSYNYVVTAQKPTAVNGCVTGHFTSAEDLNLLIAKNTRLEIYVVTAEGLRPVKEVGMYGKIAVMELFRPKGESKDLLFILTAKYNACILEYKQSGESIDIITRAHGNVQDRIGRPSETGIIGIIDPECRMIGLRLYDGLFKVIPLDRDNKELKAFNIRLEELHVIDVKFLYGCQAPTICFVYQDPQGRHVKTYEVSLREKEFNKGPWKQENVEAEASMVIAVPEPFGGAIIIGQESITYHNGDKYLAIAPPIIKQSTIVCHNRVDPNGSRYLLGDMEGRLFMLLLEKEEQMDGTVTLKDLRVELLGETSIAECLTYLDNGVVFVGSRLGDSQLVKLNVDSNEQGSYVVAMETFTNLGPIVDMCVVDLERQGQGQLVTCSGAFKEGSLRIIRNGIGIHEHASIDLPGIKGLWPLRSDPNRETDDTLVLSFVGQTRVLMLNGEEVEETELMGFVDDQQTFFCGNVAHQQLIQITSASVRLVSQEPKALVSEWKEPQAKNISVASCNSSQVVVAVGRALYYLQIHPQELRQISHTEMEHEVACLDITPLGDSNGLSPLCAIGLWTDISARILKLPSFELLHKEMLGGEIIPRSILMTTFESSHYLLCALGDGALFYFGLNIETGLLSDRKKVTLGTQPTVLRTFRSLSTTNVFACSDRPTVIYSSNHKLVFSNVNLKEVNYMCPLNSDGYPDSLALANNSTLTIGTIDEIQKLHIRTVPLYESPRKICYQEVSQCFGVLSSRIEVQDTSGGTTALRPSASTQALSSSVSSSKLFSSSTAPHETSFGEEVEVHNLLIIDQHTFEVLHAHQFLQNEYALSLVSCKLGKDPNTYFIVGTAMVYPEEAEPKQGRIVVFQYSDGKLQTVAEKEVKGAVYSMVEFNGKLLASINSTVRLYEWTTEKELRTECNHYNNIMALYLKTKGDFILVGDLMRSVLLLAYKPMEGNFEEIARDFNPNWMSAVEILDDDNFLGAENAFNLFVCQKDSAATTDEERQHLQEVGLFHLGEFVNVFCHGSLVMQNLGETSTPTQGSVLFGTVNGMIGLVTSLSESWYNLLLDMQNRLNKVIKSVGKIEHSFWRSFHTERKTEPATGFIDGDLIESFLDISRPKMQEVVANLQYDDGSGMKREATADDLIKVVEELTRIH
protocol_notes: IKZF1 HiBit Assay (HEK293T Flp-in-HiBiT-IKZF1 stable cell line)
Format: cell-based
condition_context: HEK293T Flp-in-HiBiT-IKZF1 cells, 6 hrs; read-out: IKZF1 HiBit degradation DC50
reported_metric: DC50

>>> result("Cn1cc(-c2cccc(CN3CCC4(CC3)COc3c4cc(C#N)c4c3CN([C@H]3CCC(=O)NC3=O)C4=O)c2)cn1")
"> 1 µM"
>>> result("O=C1CC[C@H](N2Cc3c4c(cc(Cl)c3C2=O)C2(CCN(Cc3ccccc3)CC2)CO4)C(=O)N1")
"> 1 µM"
>>> result("O=C1CC[C@H](N2Cc3c4c(cc(Cl)c3C2=O)C2(CCN(Cc3cccc5cn[nH]c35)CC2)CO4)C(=O)N1")
"> 1 µM"
>>> result("O=C1CCC(N2Cc3c(ccc4c3OCC43CCN(Cc4cccc5cn[nH]c45)CC3O)C2=O)C(=O)N1 (stereo not shown)")
"> 1 µM"
>>> result("[2H]C([2H])(c1cccc(-c2cnn(C(F)F)c2)c1)N1CCC2(CC1)COc1c2ccc2c1CN([C@H]1CCC(=O)NC1=O)C2=O")
"> 1 µM"
>>> result("O=C1CC[C@H](N2Cc3c(ccc4c3OCC43CCN(Cc4cnn(S(=O)(=O)c5ccccc5Cl)c4)CC3(F)F)C2=O)C(=O)N1 (stereo partly shown)")
"0.001 to 0.01 µM"
>>> result("O=C1CC[C@H](N2Cc3c(ccc4c3OC[C@]43CCN(Cc4cccc(-c5cnn(C6COC6)c5)c4)CC3(F)F)C2=O)C(=O)N1")
"> 1 µM"
>>> result("Cn1cc(-c2cccc(CN3CC[C@]4(COc5c4ccc4c5CN([C@H]5CCC(=O)NC5=O)C4=O)C(F)(F)C3)c2)cn1")
"> 1 µM"

So the reported DC50 for N#Cc1ccc(-n2cc(CN3CCC4(CC3)CNc3c4ccc4c3CN([C@H]3CCC(=O)NC3=O)C4=O)cn2)cc1 , on IKZF1 (Homo sapiens (Human), UniProt Q13422+Q96SW2), turned out to be > 1 µM

So the reported DC50 for O=C1CC[C@H](N2Cc3c(ccc4c3OC[C@@]43CCN(Cc4cccc(-c5cnn(C6COC6)c5)c4)CC3(F)F)C2=O)C(=O)N1 , on IKZF1 (Homo sapiens (Human), UniProt Q13422+Q96SW2), turned out to be > 1 µM

So the reported DC50 for CC1CN(Cc2cccc(-c3cnn(C)c3)c2)CCC12COc1c2ccc2c1CN(C1CCC(=O)NC1=O)C2=O (stereo not shown) , on IKZF1 (Homo sapiens (Human), UniProt Q13422+Q96SW2), turned out to be > 1 µM

So the reported DC50 for O=C1CC[C@H](N2Cc3c(ccc4c3OCC43CCN(Cc4ccc5c(c4)CC(=O)N5)CC3(F)F)C2=O)C(=O)N1 (stereo partly shown) , on IKZF1 (Homo sapiens (Human), UniProt Q13422+Q96SW2), turned out to be > 1 µM

So the reported DC50 for O=C1CC[C@H](N2Cc3c(ccc4c3OCC43CCN(Cc4cc(-c5ccc(Cl)cc5)no4)CC3)C2=O)C(=O)N1 , on IKZF1 (Homo sapiens (Human), UniProt Q13422+Q96SW2), turned out to be 0.01 to 0.1 µM
